- SYSTEM_NAME: Microtubule-associated protein tau (Homo sapiens)
- EXPERIMENTAL_PROTOCOL: qHTS for Inhibitors of Tau Fibril Formation, Thioflavin T Binding; note: nearly all actives have a fitted effect of over 55% in size
- ASSAY_CONDITIONS: recombinant tau K18 P301L (four-repeat tau fragment), heparin-induced fibrillization, ThT fluorescence; series mostly up to 57.4 µM
About 5,800 (2.1%) of roughly 270,000 compounds were called active. Not shown: some 16% with an inconclusive outcome. Calls come from the whole dose curve; as a rule, active = well fitted inhibition curve with a large enough effect; inconclusive = small, poorly fitted or top-dose-only effect; inactive = flat fitted curve, though single readings scatter. The entries come from a sample that favours actives as a whole.
Outcome codes: YES for active, NO for inactive

{"columns": ["COMPOUND", "SYSTEM_NAME", "ASSIGNED_CATEGORY"],
 "data": [
  ["CCOC(=O)c1c(S(=O)(=O)N2CCCC(C(=O)NCc3cccc(C)c3)C2)c(C)n(C)c1C (configuration not stated)", "Microtubule-associated protein tau (Homo sapiens)", "NO"],
  ["COc1c(O)ccc2c1CN1CCc3cc4c(cc3C1C2)OCO4 (configuration not stated)", "Microtubule-associated protein tau (Homo sapiens)", "YES"],
  ["CCN1CCN(c2cc(C)c3cc(NC(=O)c4cc(Cl)ccc4OC)ccc3n2)CC1", "Microtubule-associated protein tau (Homo sapiens)", "YES"],
  ["CCc1nnc(NC(=O)c2nc3nccc(C)n3n2)s1", "Microtubule-associated protein tau (Homo sapiens)", "NO"],
  ["COc1cccc(C(=O)NC(=O)Nc2ccc(-c3cc(C(F)(F)F)nn3-c3ccccc3)cc2)c1", "Microtubule-associated protein tau (Homo sapiens)", "NO"],
  ["O=C(Nc1ccc(F)cc1)N1CCN(c2ccc(F)cc2)CC1", "Microtubule-associated protein tau (Homo sapiens)", "NO"],
  ["CC(c1ccco1)N(C(=O)COc1ccccc1[N+](=O)[O-])c1ccccn1 (configuration not stated)", "Microtubule-associated protein tau (Homo sapiens)", "NO"],
  ["Cn1sc(=O)c2cc(S(=O)(=O)NC3CC3)ccc21", "Microtubule-associated protein tau (Homo sapiens)", "YES"],
  ["COc1cc(-c2cc3n(C)c(C)c(CCC(=O)Nc4ccc(F)cc4)c(=O)n3n2)cc(OC)c1OC", "Microtubule-associated protein tau (Homo sapiens)", "NO"],
  ["COC(=O)c1ccc(NC(=O)c2cc(Cl)ccc2OC)cc1", "Microtubule-associated protein tau (Homo sapiens)", "NO"],
  ["Cc1noc(C)c1/C=N/Nc1ccc2ccccc2n1", "Microtubule-associated protein tau (Homo sapiens)", "NO"],
  ["COc1ccc(-c2csc(N3CCN(Cc4ccc5c(c4)OCO5)CC3)n2)cc1", "Microtubule-associated protein tau (Homo sapiens)", "NO"],
  ["Cc1ccc(S(=O)(=O)c2cn(Cc3ccccc3)c3cc(N4CCCC4)c(F)cc3c2=O)c(C)c1", "Microtubule-associated protein tau (Homo sapiens)", "NO"],
  ["Cc1ccc(-c2csc(NC(=O)c3cccs3)n2)cc1", "Microtubule-associated protein tau (Homo sapiens)", "NO"],
  ["CCc1cccc(NC(=O)Cn2nc(CC)n3c(cc4cc(C)ccc43)c2=O)c1", "Microtubule-associated protein tau (Homo sapiens)", "NO"],
  ["CCn1cc2nc(SCc3ccccc3Cl)n(CCc3ccccc3)c(=O)c2n1", "Microtubule-associated protein tau (Homo sapiens)", "NO"],
  ["O=C(Nc1ccc(F)cc1F)c1cnn(-c2ccc(F)cc2)c1-n1cccc1", "Microtubule-associated protein tau (Homo sapiens)", "NO"],
  ["Cc1nn(CC(=O)N/N=C/c2ccc(F)cc2)c(C)c1[N+](=O)[O-]", "Microtubule-associated protein tau (Homo sapiens)", "NO"],
  ["Cc1ccc2nc(CNC(=O)c3ccccc3)[nH]c2c1", "Microtubule-associated protein tau (Homo sapiens)", "NO"],
  ["Cc1cc(C(=O)COC(=O)C2CC2)c(C)n1-c1ccc(F)cc1", "Microtubule-associated protein tau (Homo sapiens)", "NO"],
  ["CCc1nnc(NC(=O)c2cccc(S(=O)(=O)N(C)c3ccc(OC)cc3)c2)s1", "Microtubule-associated protein tau (Homo sapiens)", "NO"],
  ["Cc1ccc(-c2nnc(SCC(=O)NCc3ccccc3)nc2-c2ccc(C)cc2)cc1", "Microtubule-associated protein tau (Homo sapiens)", "NO"],
  ["Cc1nc(NNC(=O)c2ccccc2)cc(-c2ccccc2)n1", "Microtubule-associated protein tau (Homo sapiens)", "NO"],
  ["COc1ccc(OCc2ccc(-c3nc(C#N)c(N4CCN(c5ccccc5)CC4)o3)o2)cc1", "Microtubule-associated protein tau (Homo sapiens)", "NO"],
  ["COc1ccccc1N1CCN(C(CNC(=O)C(=O)NCc2ccc(C)cc2)c2cccnc2)CC1 (configuration not stated)", "Microtubule-associated protein tau (Homo sapiens)", "NO"],
  ["Cc1ccc(-c2csc(NNC(=O)c3ccccc3)n2)cc1", "Microtubule-associated protein tau (Homo sapiens)", "YES"],
  ["O=[N+]([O-])c1cc([N+](=O)[O-])c2cccnc2c1O", "Microtubule-associated protein tau (Homo sapiens)", "YES"],
  ["CCOC(=O)c1c(C)[nH]c(C)c1S(=O)(=O)N1CCCC(C(=O)NCc2ccccc2Cl)C1 (configuration not stated)", "Microtubule-associated protein tau (Homo sapiens)", "NO"],
  ["Brc1ccc(-c2csc(N/N=C/c3ccc4c(c3)OCO4)n2)cc1", "Microtubule-associated protein tau (Homo sapiens)", "YES"],
  ["Cc1ccc(NC(=O)CSc2nc3c(c(=O)[nH]2)CN(Cc2ccc4c(c2)OCO4)CC3)cc1C", "Microtubule-associated protein tau (Homo sapiens)", "NO"],
  ["C(=N\\Nc1ccc2ccccc2n1)/c1ccc2c(c1)OCO2", "Microtubule-associated protein tau (Homo sapiens)", "YES"],
  ["Cc1cccc(N2CCN(S(=O)(=O)c3ccc4[nH]c5c(c4c3)CCCCC5)CC2)c1C", "Microtubule-associated protein tau (Homo sapiens)", "NO"],
  ["COc1ccccc1CNc1ccc(-c2nc(-c3ccccc3C)no2)cc1[N+](=O)[O-]", "Microtubule-associated protein tau (Homo sapiens)", "NO"],
  ["COc1ccc(Cl)cc1C(=O)Nc1ccc(N(C)C(C)=O)cc1", "Microtubule-associated protein tau (Homo sapiens)", "NO"],
  ["COC(=O)CC1Oc2ccccc2-n2cc(-c3ccccc3)nc21 (configuration not stated)", "Microtubule-associated protein tau (Homo sapiens)", "NO"],
  ["CCc1ccc(NS(=O)(=O)c2ccc3[nH]cc(C(=O)NCCc4cccc(C)c4)c(=O)c3c2)cc1", "Microtubule-associated protein tau (Homo sapiens)", "NO"],
  ["Clc1cccc(-n2ncc3c(NCCc4ccccc4)ncnc32)c1", "Microtubule-associated protein tau (Homo sapiens)", "NO"],
  ["COc1ccc(-c2ccc(=O)n(CC(=O)Nc3ccc(Br)cc3F)n2)cc1", "Microtubule-associated protein tau (Homo sapiens)", "NO"],
  ["CCOC(=O)C1=C(C)NC(=O)NC1c1ccccc1 (configuration not stated)", "Microtubule-associated protein tau (Homo sapiens)", "NO"],
  ["O=C(CNC(=O)C(c1ccccc1)c1ccccc1)N/N=C\\c1ccc2c(c1)OCO2", "Microtubule-associated protein tau (Homo sapiens)", "NO"],
  ["COc1ccccc1NC(=O)c1cc(C2CC2)nc2c1c(C)nn2-c1ccc(C)cc1", "Microtubule-associated protein tau (Homo sapiens)", "NO"],
  ["COc1cc(COCC(O)CN2CCN(Cc3ccc4c(c3)OCO4)CC2)cc(OC)c1OC (configuration not stated)", "Microtubule-associated protein tau (Homo sapiens)", "NO"]
]}
